Tested on: MARK4
Setup Conditions: concentration: 1 μM, replicates: in singlicate; n = 1;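 further: KINOMEscan kinase panel screen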
Record form. Attribute: %Inh. Fill in for each entry.
Answers are plain numbers, in %.

N#Cc1c(N2CCOCC2)sc(-c2ccn[nH]2)c1-c1ccc(Cl)cc1 = 0
Cl.Oc1cccc(Nc2ccnc3cc(-c4ccncc4)ccc23)c1 = 10
O=C(NCCNc1ccnc(Nc2ccc(F)cc2)n1)c1cc2ccccc2s1 = 0

// batch mode: one %Inh value per listed entry
1. Fc1ccc(-c2ncn(CCCN3CCOCC3)c2-c2cccnc2)cc1
2. CCn1cnc2c(N)ncnc21

16
0

* * *

Record form. Attribute: %Inh. Fill in for each entry.
Tested on: SRC
Setup Conditions: concentration: 1 μM, replicates: in singlicate; n = 1
Numbers only, in %.

CSc1ccc(-c2cc3ncnc(SCC(=O)O)c3s2)cc1 = 0
O=C(NOCC1CC1)c1ccc(F)c(F)c1Nc1ccc(I)cc1Cl = 0
Cc1nnc(-c2ccc3occ(-c4ccc(C(C)O)cc4)c3c2)o1 (centres unmarked) = 18

// batch mode: one %Inh value per listed entry
1. Cc1ccc(NC(=O)c2ccnc(N3CCN(C)CC3)c2)cc1-c1ccc(C(=O)NCC2CC2)cc1
2. Cc1c2ccc(N(C)c3ccnc(Nc4cccc(S(N)(=O)=O)c4)n3)cc2nn1Cc1ccccc1.Cl.Cl

1. 0
2. 94.7

* * *

System: CSNK1E
Setup Conditions: concentration: 1 μM, replicates: in singlicate; n = 1
Record form. Attribute: %Inh. Fill in for each entry.
Give bare numbers, in %.

c1ccc(-c2n[nH]cc2-c2ccnc3ccccc23)nc1 = 69
Cc1ccc(C(=O)NCC(N)=O)cc1-n1c(C)cc(OCc2ccc(F)cc2F)c(Br)c1=O = 0

Identify measured %Inh associated with COc1ccc(Nc2nccc(N3CCC(NC(=O)Nc4cccc(C(C)=O)c4)C3)n2)cc1 (stereo not drawn)
39

* * *

Test system: AMPK-alpha1
Construct: gene PRKAA1
Setup Conditions: concentration: 1 μM, replicates: in singlicate; n = 1
Recorded Metric: %Inh (%)
Numbers only, in %.

Example entries and their recorded answers appear below.
Cn1cc(-c2ccc3c(c2)CCN3C(=O)Cc2ccccc2Cl)c2c(N)ncnc21 = 2
O=c1cc(N2CCOCC2)nc2n(Cc3cccc4ccccc34)ccn12 = 0
COc1cc2c(cc1OC[C@@H](O)CO)ncc1c3ccc(C#N)cc3[nH]c21 = 0

// batch mode: one %Inh value per listed entry
1. [2H]C([2H])(c1cccc(C(F)(F)F)c1C)n1ccn2c(=O)nc(N3CCOCC3)cc12
2. O=C(c1ccc(-c2cc(-c3c[nH]nc3-c3ccccn3)ccn2)cc1)N1CCOCC1
3. c1ccc(-c2n[nH]cc2-c2ccnc3ccccc23)nc1
4. O=C1NC(=O)C(N2CCc3ccccc32)=C1c1cccc(Cl)c1
5. Fc1ccc(-c2nn3c(OCC(F)(F)F)cccc3c2-c2ccncc2)cc1
6. COCCNC(=O)c1ccc(-c2cc(C(=O)NC3CC3)cc(F)c2C)cc1

0
19
19
0
0
20

* * *

Tested on: NDR2
Setup Conditions: concentration: 1 μM, replicates: in singlicate; n = 1
Record form. Attribute: %Inh. Fill in for each entry.
One number for each entry, in %.

Example entries and their recorded answers appear below.
Fc1ccc(-c2ncn(CCCN3CCOCC3)c2-c2cccnc2)cc1 = 10
Cl.Oc1cccc(Nc2ccnc3cc(-c4ccncc4)ccc23)c1 = 37
CCc1ccnc(/C=C/c2n[nH]c3cc(Sc4ccccc4C(=O)NC)ccc23)c1 = 0
COCCNC(=O)c1ccc(-c2cc(C(=O)NC3CC3)cc(F)c2C)cc1 = 21
COc1ccc(Nc2nccc(N3CCC(NC(=O)Nc4cccc(C(C)=O)c4)C3)n2)cc1 (centres unmarked) = 0

// batch mode: one %Inh value per listed entry
1. Cc1nnc(-c2ccc3ncc(-c4ccc(S(C)=O)cc4)n3c2)o1 (centres unmarked)
2. NS(=O)(=O)CCc1cccc(Nc2nccc(-c3c(-c4cccc(NC(=O)c5c(F)cccc5F)c4)nn4ccccc34)n2)c1
3. NCC(NC(=O)c1cc(-c2cn[nH]c2)c(-c2ccnc3[nH]ccc23)s1)c1ccccc1.O=C(O)C(F)(F)F.O=C(O)C(F)(F)F (centres unmarked)

[0, 0, 70]

// batch mode: one %Inh value per listed entry
1. CC(=O)Nc1ccc(COc2ccc(Nc3ccnc4cc(-c5ccccn5)ccc34)cc2)cc1.Cl
2. O=c1cc(N2CCOCC2)nc2n(Cc3cccc(Cl)c3Cl)c(C3CC3)nn12
3. c1ccc(-c2n[nH]cc2-c2ccnc3ccccc23)nc1
4. O=C1Cc2cc(Nc3nc(NCc4cccc(S(=O)(=O)C(F)(F)F)c4)ncc3C(F)(F)F)ccc2N1
5. CN1c2ccc(CNc3ccc(F)cc3)cc2-c2c(cnn2C)S1(=O)=O
6. Nc1nc(-c2ccc3c(N)n[nH]c3c2)cc(N2CCCC2)n1

[37, 0, 0, 0, 0, 0]

// batch mode: one %Inh value per listed entry
1. O=c1cc(N2CCOCC2)nc2n(Cc3cccc(F)c3)ccn12
2. COc1cc2ncn(-c3cc(OCc4sccc4Cl)c(C(N)=O)s3)c2cc1OC
3. Cc1c(Cn2c(C)nn3c(=O)cc(N4CCOC(C)C4)nc23)cccc1C(F)(F)F (centres unmarked)

[0, 0, 0]

* * *

System: CTK
Construct: gene MATK
Setup Conditions: concentration: 1 μM, replicates: in singlicate; n = 1
Record form. Attribute: %Inh. Fill in for each entry.
Numbers only, in %.

Example entries and their recorded answers appear below.
COc1cc2ncn(-c3cc(OCc4sccc4Cl)c(C(N)=O)s3)c2cc1OC [GSK448459] = 0
CC(=O)Nc1ccc(COc2ccc(Nc3ccnc4cc(-c5ccccn5)ccc34)cc2)cc1.Cl [GW440148] = 3
CSc1ccc(-c2cc3ncnc(SCC(=O)O)c3s2)cc1 = 14

With those in mind, consider the next compound.
Identify measured %Inh associated with NCC(NC(=O)c1cc(-c2cn[nH]c2)c(-c2ccnc3[nH]ccc23)s1)c1ccccc1.O=C(O)C(F)(F)F.O=C(O)C(F)(F)F (stereo not shown) [GSK1325775]
0

* * *

Record form. Attribute: %Inh. Fill in for each entry.
Tested on: NEK6
Setup Conditions: concentration: 1 μM, replicates: in singlicate; n = 1
Numbers only, in %.

Example entries and their recorded answers appear below.
CNc1ncnc2[nH]ncc12 [SKF-18355] = 0
O=c1cc(N2CCOCC2)nc2n(Cc3cccc4ccccc34)ccn12 [GSK2333389] = 0
c1ccc(-c2n[nH]cc2-c2ccnc3ccccc23)nc1 [GW271431] = 0
Nc1nc(-c2ccc3c(N)n[nH]c3c2)cc(N2CCCC2)n1 [GSK2227430] = 0
Cc1nnc(-c2ccc3occ(-c4ccc(C(C)O)cc4)c3c2)o1 (stereo not shown) = 4

// batch mode: one %Inh value per listed entry
1. N#Cc1c(N2CCOCC2)sc(-c2ccn[nH]2)c1-c1ccc(Cl)cc1
2. COc1ccc(Nc2ncc(C#N)c(Nc3ccccc3C(N)=O)n2)cc1N1CCN(C)CC1.Cl [GSK1558669]
3. CN1c2ccc(NCc3ccc(F)cc3)cc2-c2c(cnn2C)S1(=O)=O
4. COc1ccc(COc2cc(-n3cnc4ccccc43)sc2C(N)=O)cc1 [GSK1024304]

1: 17; 2: 99.9; 3: 0; 4: 0

* * *

System: PIK3C2B
Setup Conditions: concentration: 1 μM, replicates: in singlicate; n = 1
Record form. Attribute: %Inh. Fill in for each entry.
Respond with a number, then the unit of measure.

N#Cc1ccc(-c2cc(-c3c[nH]nc3-c3ccccn3)ccn2)cc1 [GW693028] = 0%
NS(=O)(=O)c1cccc(-c2ccc3ncc(N4CCOCC4)nc3c2)c1 [GSK1535721] = 0%
O=C(Nc1cccc(-c2nn3ncccc3c2-c2ccnc(Nc3cccc(C(F)(F)F)c3)n2)c1)c1c(F)cccc1F [GSK299495] = 0%

With those in mind, consider the next molecule.
Find %Inh for Cn1ccc2ncnc(Oc3ccc(NC(=O)Nc4ccncc4)c(Cl)c3)c21 on PIK3C2B and write it down.
16%

* * *

Tested on: NDR1
Construct: gene STK38
Setup Conditions: concentration: 1 μM, replicates: in singlicate; n = 1
Classes (%Inh): interval 1 (below 7%), interval 2 (7% to below 30%), interval 3 (30% or more)

O=C1Cc2cc(Nc3nc(NCc4cccc(S(=O)(=O)C(F)(F)F)c4)ncc3C(F)(F)F)ccc2N1 = interval 2
Cc1cccc(-c2nc(Nc3ccc4ncsc4c3)c3ccccc3n2)n1 = interval 2
Cc1nnc(-c2ccc(C)c(-c3ccc(C(=O)Nc4ccc(NS(C)(=O)=O)cc4)cc3)c2)o1 = interval 2
O=C(NCCCN1CCOCC1)c1cccc(Nc2nccc(Nc3ccc(Oc4ccccc4)cc3)n2)c1 = interval 3
O=C(NCCNc1ccnc(Nc2ccc(F)cc2)n1)c1cc2ccccc2s1 = interval 1

In the following, a different molecule is considered.
Just checking, what class would you give Cc1ccc(NC(=O)c2ccnc(N3CCN(C)CC3)c2)cc1-c1ccc(C(=O)NCC2CC2)cc1 here?
interval 2
